System: Staphylococcus xylosus
assay metric: MIC

compound | test target | MIC
CC[C@H](C)[C@H](NC(=O)[C@H](CC(C)C)NC(=O)[C@H](CCCCN)NC(=O)[C@H](CCCN=C(N)N)NC(=O)[C@@H](N)CCCCN)C(=O)N[C@@H](CCCCN)C(=O)N[C@@H](CCCN=C(N)N)C(=O)N[C@@H](CCCCN)C(=O)O | Staphylococcus xylosus | ≥ 64 µM
CC[C@H](C)[C@H](NC(=O)[C@H](CC(C)C)NC(=O)[C@@H](NC(=O)[C@@H](N)CC(C)C)[C@@H](C)CC)C(=O)N[C@@H](CCCCN)C(=O)N[C@@H](CCCN=C(N)N)C(=O)N[C@@H](CCCCN)C(=O)O | Staphylococcus xylosus | ≥ 64 µM
NCCCC[C@H](NC(=O)[C@H](CCCN=C(N)N)NC(=O)[C@H](CCCCN)NC(=O)CNC(=O)[C@H](CO)NC(=O)CNC(=O)[C@H](CCCCN)NC(=O)[C@H](CCCN=C(N)N)NC(=O)[C@@H](N)CCCCN)C(=O)O | Staphylococcus xylosus | ≥ 64 µM

Shifting focus to the compound that follows.
input: Look up and report measured MIC (Staphylococcus xylosus) for the following compound: "CC[C@H](C)[C@H](NC(=O)[C@H](CC(C)C)NC(=O)[C@@H](NC(=O)[C@H](CC(C)C)NC(=O)[C@@H](NC(=O)[C@H](CCCCN)NC(=O)[C@H](CCCN=C(N)N)NC(=O)[C@H](CCCCN)NC(=O)[C@H](CCCN=C(N)N)NC(=O)[C@@H](N)CCCCN)[C@@H](C)CC)[C@@H](C)CC)C(=O)N[C@@H](CCCCN)C(=O)N[C@@H](CCCN=C(N)N)C(=O)N[C@@H](CCCCN)C(=O)O"
output: 0.5 µM

###

Observed MIC for Bacillus cereus, reported per entry below.
Only the number, expressed in µM, is required.

compound | MIC / µM
CC(C)C[C@H](NC(=O)[C@H](CCCCN)NC(=O)[C@H](Cc1ccccc1)NC(=O)[C@@H](NC(=O)[C@H](CO)NC(=O)CNC(=O)[C@H](CC(C)C)NC(=O)[C@@H](N)Cc1ccccc1)C(C)C)C(=O)N[C@@H](C)C(=O)N[C@@H](CO)C(=O)N[C@@H](CCCCN)C(=O)N[C@H](C(=O)N[C@@H](Cc1ccccc1)C(=O)N1CCC[C@H]1C(=O)N[C@@H](C)C(=O)N[C@H](C(=O)N[C@@H](Cc1ccccc1)C(=O)NCC(=O)N[C@@H](CCCCN)C(=O)N[C@H](C(=O)O)C(C)C)C(C)C)C(C)C | 14.9

Shifting focus to the molecule that follows.
input: Look up and report measured MIC (Bacillus cereus) for the following molecule: "CC(C)C[C@H](NC(=O)[C@H](CCCCN)NC(=O)[C@H](Cc1ccccc1)NC(=O)[C@@H](NC(=O)[C@@H](NC(=O)CNC(=O)[C@H](CC(C)C)NC(=O)[C@@H](N)Cc1ccccc1)C(C)C)C(C)C)C(=O)N[C@@H](C)C(=O)N[C@@H](CO)C(=O)N[C@@H](CCCCN)C(=O)N[C@H](C(=O)N[C@@H](Cc1ccccc1)C(=O)NCC(=O)N[C@@H](CCCCN)C(=O)N[C@H](C(=O)N[C@@H](Cc1ccccc1)C(=O)NCC(=O)N[C@@H](CCCCN)C(=O)N[C@H](C(=O)O)C(C)C)C(C)C)C(C)C"
output: 3.69

Reference for the values: DBAASP
